- System: Lefty1
- protocol.description: Lefty1 binders on small-molecule microarrays, primary screen, biochemical, small-molecule microarray, 635/667 nm fluorescence (AID 1139)
- test.conditions: small-molecule microarray binding, fluorescence 635/667; higher = more signal
measured.attribute: composite z-score
Reply with the value as a number alone.

Study these solved cases before continuing.
compound: COC(=O)[C@H](C)NC(=O)CCC1CC(OC(=O)NCc2ccc3c(c2)OCO3)CC2(CCCC(COC(=O)NCC3CCCCC3)O2)O1 (some centres undefined)
composite z-score: 0.97
--
compound: CO[C@@H]1COC(=O)[C@H](CCSC)NC(=O)CC=C[C@@H](C)COC(=O)CCC[C@H]1C
composite z-score: 1.84
--
compound: CC(C)CON=C1C[C@@H](O)[C@@H](O)[C@@H]2[C@@H]3C(=O)N(c4cccc(Oc5ccccc5)c4)C(=O)[C@@H]3CC[C@@H]12
composite z-score: 0.13
--
compound: CCOC(=O)[C@H](CC(C)C)NC(=O)CCC1CC(OC(=O)NCCc2ccc(F)cc2)CC2(CCCC(COC(=O)NCCc3ccc(Cl)cc3)O2)O1 (some centres undefined)
composite z-score: 1.34
--
compound: C#CCCCON=C1[C@H]2CCn3c(=O)n(-c4ccccc4)c(=O)n3[C@H]2[C@H](O)[C@@H]2O[C@H]12
composite z-score: 0.66

// sample CCCNC(=O)OC[C@H]1O[C@H](CCON=C(C)CCC(=O)OC[C@H]2O[C@H](c3ccccc3)C=C[C@@H]2Oc2ccc(OC)cc2)C=C[C@@H]1Oc1ccc(OC)cc1 , its composite z-score was 0.171

// sample Cc1cc2c(c(=O)o1)[C@@H](O)[C@H]1O[C@H]1C2=O , its composite z-score was 1.32

// sample C#CCCCON=C1C[C@@H](O)[C@@H](O)[C@@H]2[C@@H]3C(=O)N(C(C)(C)C)C(=O)[C@@H]3CC[C@@H]12 , its composite z-score was -1.28

// sample CO[C@@H]1C=CCC(=O)N[C@@H](C)C(=O)OC[C@@H](OC)[C@H](C)CCCC(=O)OC[C@H]1C , its composite z-score was 1.37

// sample CCOC(=O)[C@H](Cc1ccccc1)NC(=O)CCC1CC(OC(=O)NCCc2ccc(F)cc2)CC2(CCCC(COC(=O)NCCc3ccc(Cl)cc3)O2)O1 (some centres undefined) , its composite z-score was 0.583

// sample CCOC(=O)NN=C1C[C@@H](O)[C@@H](O)[C@@H]2[C@@H]3C(=O)N(Cc4ccccc4)C(=O)[C@@H]3CC[C@H]12 , its composite z-score was 0.3

// sample CO[C@@H]1COC(=O)CC=C[C@@H](C)[C@H](OC)COC(=O)[C@@H](C)COC(=O)CC=C[C@H]1C , its composite z-score was 1.24

// sample CO[C@H]1COC(=O)[C@H](C)NC(=O)[C@@H](C)COC(=O)[C@H]2CCCN2C(=O)CC=C[C@H]1C , its composite z-score was 0.632

// sample COc1cccc([C@@H]2Oc3ccc(OC)cc3C(=O)[C@H]2O)c1 , its composite z-score was 0.678

// sample COc1ccc(COC(=O)NN=C2C[C@@H](O)[C@@H](O)[C@@H]3[C@@H]4C(=O)N(Cc5ccccc5)C(=O)[C@@H]4CC[C@H]23)cc1 , its composite z-score was -0.403

// sample CC(C)=CCCC(C)=CCON=C1C[C@@H](O)[C@@H](O)[C@@H]2[C@@H]3C(=O)N(c4cccc(Oc5ccccc5)c4)C(=O)[C@@H]3CC[C@@H]12 , its composite z-score was 0.514

// sample O=C(NN=C1C[C@@H](O)[C@@H](O)[C@@H]2[C@@H]3C(=O)N(C[C@@H]4CCCO4)C(=O)[C@@H]3CC[C@H]12)OCc1ccccc1 , its composite z-score was -0.793

// sample CC(CCN1CCCCc2nc(C)c(C)cc21)=NO[C@H](C)c1cn([C@H](CO)Cc2ccccc2)nn1 , its composite z-score was 1.08

---

- protocol.description: binders of probe aFGF10 on microarray, primary screen, stem cell growth factor project, biochemical, small-molecule microarray, fluorescence 635/667 (AID 1071);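 also: score merges 667 nm spot intensity and signal to noise from triplicate slides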
- test.conditions: higher = more signal
measured.attribute: composite z-score
Reply with the value as a number alone.

Study these solved cases before continuing.
compound: O=C1C[C@@H](O)[C@@H](O)[C@@H]2[C@@H]3C(=O)N(C[C@@H]4CCCO4)C(=O)[C@@H]3CC[C@@H]12
composite z-score: 0.58
//
compound: CCO[C@H](c1cc(OC)cc([N+](=O)[O-])c1OC)[C@H](C)C=CCC(=O)OC
composite z-score: -0.0567
//
compound: CC=CC1=C(CO)C(=O)[C@@H]2O[C@@H]2C1=O
composite z-score: 0.0736
//
compound: CCOC(=O)[C@H](CC(C)C)NC(=O)CCC1CC(OC(=O)NCc2ccc3c(c2)OCO3)CC2(CCCC(COC(=O)NCC3CCCCC3)O2)O1 (some centres undefined)
composite z-score: 0.443
//
compound: C=COC[C@@H]1CN2[C@@H](CC[C@@H](C)[C@@H]2c2ccc(Br)cc2)C(=O)O1
composite z-score: -0.134

// sample CCOC(=O)CCN1C(=O)[C@H]2[C@H]3[C@H](O)[C@H](O)CC(=NNC(=O)OCc4ccccc4)[C@@H]3CC[C@H]2C1=O , its composite z-score was 0.504

// sample COc1cccc([C@H]2Oc3ccc(OC)cc3C(=NOC[C@@H](C)[C@H](OCc3ccccc3)C(C)C)[C@@H]2O)c1 , its composite z-score was 0.431

// sample COc1cccc([C@H]2Oc3ccc(OC)cc3C(=NO[C@H](C)c3cn([C@H](CO)Cc4ccccc4)nn3)[C@@H]2O)c1 , its composite z-score was -0.0993

// sample Cc1ccc(S(=O)(=O)N[C@H]2COC(=O)CC=C[C@@H](C)COC(=O)CC=C[C@@H]2C)cc1 , its composite z-score was 0.0963

// sample COC(=O)CC=C[C@@H](C)[C@@H](C=NOC[C@H]1O[C@H](c2ccccc2)C=C[C@@H]1Oc1ccc(OC)cc1)NS(=O)(=O)c1ccc(C)cc1 , its composite z-score was -1.06

---

- protocol.description: RPMI8226 myeloma cell viability, profiling panel, resazurin fluorescence, basal, 24 h, PK04 Diversity Set (AID 1180);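 also: RPMI8826 multiple myeloma cell line at 5000 cells per well; test concentration not given here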
- test.conditions: higher = more signal
Recorded measurements of z-score, one per entry
Reply with the value as a number alone.

Study these solved cases before continuing.
compound: CON=CC[C@@H]1C=C[C@H](OC(C)=O)[C@@H](COC(C)=O)O1
reported.measurement: -0.143

compound: CO[C@H]1COC(=O)[C@H](C)NC(=O)CC=C[C@@H](C)[C@H](OC)COC(=O)[C@@H](OCc2ccccc2)C=C[C@@H]1C
reported.measurement: 0.323

// sample CCOC(=O)[C@H](Cc1ccccc1)NC(=O)CCC1CC(OC(=O)NCCc2ccc(F)cc2)CC2(CCCC(COC(=O)NCCCN3CCCC3=O)O2)O1 (some centres undefined) , its z-score was 0.898

// sample Cc1ccc(S(=O)(=O)N[C@H]2COC(=O)CC=C[C@@H](C)COC(=O)CC=C[C@@H]2C)cc1 , its z-score was 0.108

---

- experimental.system: Torsin-1A-interacting protein 1 (Homo sapiens) (UniProt Q5JTV8)
- Sequence (Q5JTV8 whole entry, looked up): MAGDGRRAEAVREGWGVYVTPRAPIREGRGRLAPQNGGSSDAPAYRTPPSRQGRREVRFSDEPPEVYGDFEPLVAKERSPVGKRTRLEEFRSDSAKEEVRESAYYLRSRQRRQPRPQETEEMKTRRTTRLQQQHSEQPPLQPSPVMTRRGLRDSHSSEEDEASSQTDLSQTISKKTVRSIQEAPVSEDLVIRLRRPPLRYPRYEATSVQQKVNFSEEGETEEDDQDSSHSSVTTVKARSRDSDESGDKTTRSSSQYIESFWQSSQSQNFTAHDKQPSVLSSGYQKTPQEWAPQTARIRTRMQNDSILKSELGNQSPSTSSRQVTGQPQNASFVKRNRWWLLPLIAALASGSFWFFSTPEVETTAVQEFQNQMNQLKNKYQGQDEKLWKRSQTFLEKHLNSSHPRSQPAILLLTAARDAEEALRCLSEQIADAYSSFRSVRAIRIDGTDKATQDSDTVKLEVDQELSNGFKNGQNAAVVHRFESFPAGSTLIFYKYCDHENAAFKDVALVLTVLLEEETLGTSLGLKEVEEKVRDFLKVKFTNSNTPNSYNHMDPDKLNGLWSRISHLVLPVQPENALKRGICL
- protocol.description: LAP1 binders from COS7 cell lysate, primary screen, small-molecule microarray, 635/667 nm fluorescence (AID 1116)
- test.conditions: COS7-hLAP1 lysate binding, 635 nm fluorescence, higher = more signal
Decision: composite z-score >= -0.4 yields Condition met, all other cases yield Condition not met.

Past entries and their recorded results:
molecule: COc1ccc(O[C@H]2C=C[C@@H](c3ccccc3)O[C@@H]2CON=C(C)CCC(=O)OC[C@H]2O[C@H](c3ccccc3)C=C[C@@H]2Oc2ccc(OC)cc2)cc1
cat: Condition not met

molecule: CC(C)=CCCC(C)=CCON=C1C[C@@H](O)[C@@H](O)[C@@H]2[C@@H]3C(=O)N(C(C)(C)C)C(=O)[C@@H]3CC[C@@H]12
cat: Condition met

molecule: O=C1C=C[C@@H](O)[C@@H]2[C@@H]3C(=O)N(c4ccc(F)cc4F)C(=O)[C@@H]3CC[C@@H]12
cat: Condition met

molecule: COc1ccc(O[C@H]2C=C[C@@H](c3ccccc3)O[C@@H]2CON=C(C)CCN2CCc3nc(-c4ccccc4)c(-c4ccccc4)cc3C2)cc1
cat: Condition met

molecule: COc1cccc([C@H]2Oc3ccc(OC)cc3C(=NOC[C@@H](C)[C@H](OCc3ccccc3)C(C)C)[C@@H]2O)c1
cat: Condition met

molecule: Cc1cc2c(nc1C)CCCCN2CC(C)ON=C[C@@H](C)[C@H](OCc1ccccc1)C(C)C (stereo partly drawn)
cat: Condition not met

**Q:** Check if composite z-score >= -0.4 (inclusive). Item: CCc1cc2c(nc1CC)CCN(CCC(C)=NO[C@H](C)c1cn([C@@H]3COC[C@H]3O)nn1)C2
**A:** Condition met
